experiment: Particle size and polydispersity index of nanoparticle compositions (Zetasizer Nano ZS); assay type: physicochemical; details: Table 1A
quantity kind: PDI
The reply should be a number, written without any unit.

Entry CCCCCCCCCOC(=O)CCCCCCCN(CCCCCCCC(=O)OC(CCCCCCCC)CCCCCCCC)CCCC(=O)NC — recorded PDI = 0.12

Entry CCCCCCCCCOC(=O)CCCCCCCN(CCCCCCCC(=O)OC(CCCCCCCC)CCCCCCCC)CCCNC(=O)N(C)C — recorded PDI = 0.21

Entry CCCCCCCCC(CCCCCCCC)OC(=O)CCCCCCCN(CCO)CCCCCCCC(=O)O[C@H](C)CCCCCCCC — recorded PDI = 0.13

Entry CCCCCCCCCOC(=O)CCCCCCCN(CCCCCCCC(=O)OC(CCCCCCCC)CCCCCCCC)CCCN/C(=C/[N+](=O)[O-])NC — recorded PDI = 0.18

Entry CCCCCCCCCN(CCO)CCCCCCCC(=O)OC(CCCCCCCC)CCCCCCCC — recorded PDI = 0.20

Entry CCCCCCCCCOC(=O)CCCCCCCN(CCO)CCCCCCCCCC(CCCCCCCC)CCCCCCCC — recorded PDI = 0.150

Entry CCCCCCCOC(=O)CCCCCCCCCN(CCO)CCCCCCCCCC(=O)OC(CCCCCC)CCCCCC — recorded PDI = 0.17

Entry CCCCCCCCCOC(=O)CCCCCCCN(CCCCCCCC(=O)OC(CCCCCCCC)CCCCCCCC)CCOCCO — recorded PDI = 0.110

Entry CCCCC/C=C\C/C=C\CCCCCCCCN(CCO)CCCCCCCC(=O)OCCCCCCCCC — recorded PDI = 0.5

Entry CCCCCCCCCOC(=O)CCCCCCCN(CCO)CCCCCCCC(=O)OC(CCC)CCC — recorded PDI = 0.14

Entry CCCCCCCCCOC(=O)CCCCCCCN(CCCCCCCC(=O)OC(CCCCCCCC)CCCCCCCC)CCN1CCOCC1 — recorded PDI = 0.160

Entry CCCCCCCCC(CCC)OC(=O)CCCN(CCO)CCCCCCCC(=O)OC(CCCCCCCC)CCCCCCCC (stereo not shown) — recorded PDI = 0.15

Entry CCCC/C=C\CCC(CC/C=C\CCCC)OC(=O)CCCCCCCN(CCO)CCCCCCCC(=O)OCCCCCCCCC — recorded PDI = 0.12

Entry CCCCCCCCC(CC)OC(=O)CCCN(CCO)CCCCCCCC(=O)OC(CCCCCCCC)CCCCCCCC (stereo not shown) — recorded PDI = 0.10

Entry CCCCCCCCCOC(=O)CCCCCCCN(CCCO)CCCCCCCC(=O)OC(CCCCCCCC)CCCCCCCC — recorded PDI = 0.17

Entry CCCCCCCCCOC(=O)CCCCCCCN(CCO)CCCCCCCC(=O)N(CCCCCCCC)CCCCCCCC — recorded PDI = 0.22

Entry CCCCCCCCCOC(=O)CCCCCCCN(CCCCCCCC(=O)OC(CCCCCCCC)CCCCCCCC)CCCNc1c(NC)c(=O)c1=O — recorded PDI = 0.14

Entry CCCCCCCCCOC(=O)CCCCCCCN(CCCCCCCC(=O)OC(CCCCCCCC)CCCCCCCC)CCCNC(=O)NC — recorded PDI = 0.22

====

experiment: Encapsulation efficiency of RNA (QUANT-IT RIBOGREEN RNA assay); type: physicochemical; conditions: Table 1A
Exercise: state measured EE (%) for each of the compounds provided.
Write down the numeric answer in % and omit the unit.

Entry CCCCCCCCCOC(=O)CCCCCCCN(CCCCCCCC(=O)OC(CCCCCCCC)CCCCCCCC)CCCNC(=O)CO [Compound 198] — recorded EE (%) = 99.5

Entry CCCCCCCCCCCCCCCCCCN(CCO)CCCCCCCC(=O)OC(CCCCCCCC)CCCCCCCC [Compound 1] — recorded EE (%) = 97.04

Entry CCCCCCCCCC(=O)OC(C)CCCCCCN(CCO)CCCCCCCC(=O)OC(CCCCCCCC)CCCCCCCC (centres unmarked) [Compound 98] — recorded EE (%) = 94.4

Entry CCCCCCCCCOC(=O)CCCCCCCN(CCCCCCCC(=O)OC(CCCCCCCC)CCCCCCCC)CC(C)O (centres unmarked) [Compound 10] — recorded EE (%) = 89.60

Entry CCCCCCCCCOC(=O)CCCCCCCN(CCO)CCCCCCCC(=O)OC(CCC1CC1CCCC)CCC1CC1CCCC (centres unmarked) [Compound 160] — recorded EE (%) = 94.0

Entry CCCCCCCCC(CCCCCCCC)OC(=O)CCCCCCCN(CCO)CCCCCCCC(=O)OCC(C)CCCCCCC (centres unmarked) [Compound 184] — recorded EE (%) = 94.2

Entry CCCCCCCCCOC(=O)C(C)CCCCCCN(CCO)CCCCCCCOC(=O)C(CCCCCCCC)CCCCCCCC (centres unmarked) [Compound 163] — recorded EE (%) = 93.2

Entry CCCCCCCCCOC(=O)CCCCCCCN(CCO)CCCCCCCCCC(=O)OC(CCCCCC)CCCCCC [Compound 147] — recorded EE (%) = 88.31

Entry CCCCCCCCC(CCCCCCCC)OC(=O)CCCCCCCN(CCO)CCCC(=O)OC(CCCCCC)CCCCCCCC (centres unmarked) [Compound 73] — recorded EE (%) = 95.7

Entry CCCCCCCCOP(=O)(OCCCCCCCC)OCCCCCCCN(CCO)CCCCCCCC(=O)OC(C)CCCCCCCC (centres unmarked) [Compound 132] — recorded EE (%) = 30.77

Entry CCCCCCCCCOC(=O)CCCCCCCN(CCCCCCCC(=O)OC(CCCCCCCC)CCCCCCCC)CCCOC [Compound 16] — recorded EE (%) = 91.32

====

Exercise: state measured pKa for each of the compounds provided.
test: Apparent (surface) pKa of the LNP formulation (TNS assay); type: physicochemical; conditions: Table 1A
The reply should be a number, written without any unit.

Entry CCCCCCCCCOC(=O)CCCCCCCN(CCO)CCCCCCCC(=O)OC(CCCCCCCC)CCCCCCCC — recorded pKa = 6.56

Entry CCCCCCCCCCCOC(=O)CCCCCN(CCO)CCCCCCCC(=O)OC(CCCCCCCC)CCCCCCCC — recorded pKa = 6.68

Entry CCCCCCCCCN(CCCCCCCC(=O)OC(CCCCCCCC)CCCCCCCC)CCCn1ccnc1 — recorded pKa = 6.64

Entry CCCCCCCCC(C)OC(=O)CCCCCCCN(CCO)CCCCCCCC(=O)OC(CCCCCCCC)CCCCCCCC (stereo not shown) — recorded pKa = 6.68

Entry CCCCCCCCCOC(=O)CCCCCCCN(CCO)CCCCCCCC(=O)N(CCCCCCCC)CCCCCCCC — recorded pKa = 7.09

Entry CCCCCCCCCCCCN(CCO)CCCCCCCCCCCC(=O)OC — recorded pKa = 7.06

Entry CCCCCCCCCOC(=O)CCCCCCCN(CCCCCCCC(=O)OC(CCCCCCCC)CCCCCCCC)CCCNC(C)=O — recorded pKa = 7.17

====

test: Residual lipid levels in rat liver and spleen (UPLC-MS); type: in vivo; conditions: rats, intravenous, 2.0 mpk, 48 h
quantity kind: % remaining dose in liver, 48 h

Entry CCCCCC/C=C\COC(=O)CCCCCCCN(CCO)CCCCCCCC(=O)OC(CCCCCCCC)CCCCCCCC — recorded % remaining dose in liver, 48 h = <1%

Entry CCCCCCCCCOC(=O)CCCCCCCN(CCO)CCCCCCCOC(=O)C(CCCCCCCC)CCCCCCCC — recorded % remaining dose in liver, 48 h = <1%

Entry CCCCCCCCCOC(=O)CCCCCCCN(CCO)CCCCCCCC(=O)OC(CCCCCCCC)CCCCCCCC — recorded % remaining dose in liver, 48 h = <1%

====

assay: Chemical stability of lipids in ethanol (lipid purity); type: physicochemical; conditions: t = 96 h, 37° C.
quantity kind: Lipid Purity (%)
Write down the numeric answer in % and omit the unit.

Entry CCCCCCCCCOC(=O)CCCCCCCN(CCCCCCCC(=O)OC(CCCCCCCC)CCCCCCCC)CCN(C)C — recorded Lipid Purity = 91.90

Entry CCCCC/C=C\C/C=C\CCCCCCCCN(CCO)CCCCCCCC(=O)OCCCCCCCCC — recorded Lipid Purity = 93.86

Entry CCCCCCCCCOC(=O)CCCCCCCN(CCCCCCCC(=O)OC(CCCCCCCC)CCCCCCCC)CCCNC(=O)C(C)(C)COC — recorded Lipid Purity = 96.47

====

experiment: Encapsulation efficiency of RNA (QUANT-IT RIBOGREEN RNA assay); assay type: physicochemical; conditions: Table 1A
Exercise: state measured EE (%) for each of the molecules provided.
Write down the numeric answer in % and omit the unit.

Entry CCCC/C=C\CCC(CC/C=C\CCCC)OC(=O)CCCCCCCN(CCO)CCCCCCCC(=O)OCCCCCCCCC — recorded EE (%) = 97.6

Entry CCCCCCCCC(CCCCCCCC)OC(=O)CCCCCCCN(CCO)C(C)CCCCCCCCOC(=O)CCCCCCC (stereo not shown) — recorded EE (%) = 94.3

Entry CCCCCCCCC(CCCCCCCC)OC(=O)CCCCCCCN(C)CCCCCCCC(=O)OC(CCCCCCCC)CCCCCCCC — recorded EE (%) = 97.7

Entry CCCCCCCCCN(CCO)CCCCCCCC(=O)OC(CCCCCCCC)CCCCCCCC — recorded EE (%) = 92.25
